# TEST_SYSTEM: recombinant human Meningioma Expressed Antigen 5 (MGEA5), also referred to as O-GlcNAcase (OGA) (Homo sapiens, UniProt O60502)
# Construct: Full length OGA enzyme was purchased at OriGene (cat #TP322411); purchased OriGene TP322411
# Sequence (O60502 1-916): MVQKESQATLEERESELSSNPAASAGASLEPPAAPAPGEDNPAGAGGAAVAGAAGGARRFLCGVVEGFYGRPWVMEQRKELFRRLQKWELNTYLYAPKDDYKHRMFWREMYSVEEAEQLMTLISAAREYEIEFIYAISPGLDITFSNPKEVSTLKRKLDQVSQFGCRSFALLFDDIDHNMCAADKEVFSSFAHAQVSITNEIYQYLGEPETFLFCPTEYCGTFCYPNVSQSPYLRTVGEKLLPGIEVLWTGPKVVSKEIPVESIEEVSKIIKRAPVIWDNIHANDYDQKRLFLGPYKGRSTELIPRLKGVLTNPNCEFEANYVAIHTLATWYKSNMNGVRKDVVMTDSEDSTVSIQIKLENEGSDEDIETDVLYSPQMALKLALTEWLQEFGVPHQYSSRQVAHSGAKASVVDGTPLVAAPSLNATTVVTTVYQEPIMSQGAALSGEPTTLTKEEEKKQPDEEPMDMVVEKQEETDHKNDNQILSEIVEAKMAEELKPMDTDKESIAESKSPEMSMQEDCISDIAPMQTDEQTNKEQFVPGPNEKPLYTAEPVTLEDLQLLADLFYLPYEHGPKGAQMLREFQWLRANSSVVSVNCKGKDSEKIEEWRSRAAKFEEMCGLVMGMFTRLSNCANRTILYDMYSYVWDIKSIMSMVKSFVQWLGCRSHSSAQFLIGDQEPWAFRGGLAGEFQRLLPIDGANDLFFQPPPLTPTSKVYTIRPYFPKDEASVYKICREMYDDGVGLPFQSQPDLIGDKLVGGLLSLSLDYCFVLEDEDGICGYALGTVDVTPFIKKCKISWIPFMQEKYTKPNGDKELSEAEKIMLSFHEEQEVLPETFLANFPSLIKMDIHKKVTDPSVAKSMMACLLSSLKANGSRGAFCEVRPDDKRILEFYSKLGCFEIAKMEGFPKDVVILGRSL
# TEST_SUMMARY: OGA biochemical assay (inhibition of FM-GlcNAc hydrolysis, fluorescence)
# DETAILS: FM-GlcNAc substrate, 6 h at room temperature, read-out: Enzymatic hOGA, pIC50 (converted)
OUTCOME_MEASURE: IC50 (nM)

(a) Cc1cc(C[C@H]2CCCN(C(C)c3cnc4c(c3)nc(C)n4C)C2)cc(C)n1 (mixture of isomers) [Compound 11]
(b) Cc1cc(C[C@H]2CCCN(C(C)c3cnc4[nH]c(C)nc4c3)C2)cc(C)n1 (single isomer, unassigned) [Compound 6b]
Parameter metric = IC50. Return the lower-valued option from a and b . // respond with label for picked entry b
(b: 7.94 nM, a: 31.6 nM)

(1) Cc1cc(OC[C@@H]2CCCN([C@H](C)c3ccc4sc(C)nc4n3)C2)cc(C)n1 [Compound 45a]
(2) Cc1cc(OC[C@H]2CCCN(C(C)c3nc4nc(C)sc4cc3F)C2)cc(C)n1 (stereo partly shown) [Compound 91]
(3) Cc1cc(C[C@@H]2CCN([C@@H](C)c3cc4nc(C)oc4cc3F)C2)cc(C)n1 (relative stereo) [Compound 33b]
Ordering criterion: IC50; begin with the maximum. // respond by listing labels in the order requested 1, 3, 2
(1: 501 nM, 3: 63.1 nM, 2: 3.98 nM)

(1) Cc1cc(C2CCCN(C(C)c3ccc4sc(C)nc4n3)C2)c(F)c(C)n1 (single isomer, unassigned) [Compound 78]
(2) Cc1cc(CO[C@H]2CCCN(C(C)c3ccc4sc(C)nc4n3)C2)cc(C)n1 (single isomer, unassigned) [Compound 67]
Parameter metric = IC50. Return the lower-valued option from 1 and 2 . // respond with label for picked entry 1
(1: 10 nM, 2: 501 nM)

This collection of values is drawn from patent US20210115040A1.
